- Tested on: A431
- PROCEDURE_TEXT: LBPA endosome anti-LBPA integrated intensity (sum per cell), Z-score; higher = more LBPA staining
- APPLIED_CONDITIONS: compound concentration in added solution (µM; 5 µl added to 20 µl cells): 10; 18 h
Where a name gives a salt, the structure may show the parent alone.
Quick rule for you: LBPA endosome anti-LBPA integrated intensity (z-score) at -0.3 or higher means 1 (yes), lower means 0 (no).

These solved cases illustrate the format of a correct answer.
COMPOUND	ASSIGNED_CLASS
Cc1ncc([N+](=O)[O-])n1CC(C)O (stereo unspecified)	1 (yes)
Cc1ccnc(NS(=O)(=O)c2ccc(N)cc2)n1	0 (no)
CC1(C)[C@@H](OC(=O)CCC(=O)O)CC[C@]2(C)[C@H]3C(=O)C=C4[C@@H]5C[C@@](C)(C(=O)O)CC[C@]5(C)CC[C@@]4(C)[C@]3(C)CC[C@@H]12 [Carbenoxolone disodium salt]	0 (no)

Alright, here's another compound for you.
State whether the measured LBPA endosome anti-LBPA integrated intensity (z-score) reaches -0.3, counting equality as reaching it, for CC1=C(/C=C/C(C)=C/C=C/C(C)=C/C(=O)O)C(C)(C)CCC1 1 (yes)

---

- Tested on: HeLa MZ
- PROCEDURE_TEXT: filipin (cholesterol) integrated intensity within LBPA endosomes, Z-score; higher = more cholesterol in LBPA endosomes
- APPLIED_CONDITIONS: compound concentration in added solution (µM; 5 µl added to 20 µl cells): 10; 18 h
Counter-ions that a name gives are not always drawn.
MEASURE: filipin (z-score)
Respond using a number only.

Return filipin (z-score) measured with HeLa MZ given this molecule: CC[C@]12CCCN3CCc4c(n(c5ccccc45)[C@@](O)(C(=O)OC)C1)[C@@H]32 [Vincamine] -0.216

Return filipin (z-score) measured with HeLa MZ given this molecule: C[C@](N)(Cc1ccc(O)c(O)c1)C(=O)O [Methyldopa (L,-)] -0.319

Return filipin (z-score) measured with HeLa MZ given this molecule: CN1CCN(C2=Nc3cc(Cl)ccc3Nc3ccccc32)CC1 [Clozapine] 1.4

Return filipin (z-score) measured with HeLa MZ given this molecule: Cc1cc(C(C)(C)C)cc(C)c1CC1=NCCN1 [Xylometazoline hydrochloride] 0.303

Return filipin (z-score) measured with HeLa MZ given this molecule: CC[C@H]1OC(=O)[C@H](C)[C@@H](O[C@H]2C[C@@](C)(OC)[C@@H](O)[C@H](C)O2)[C@H](C)[C@@H](O[C@@H]2O[C@H](C)C[C@H](N(C)C)[C@H]2O)[C@](C)(O)C[C@@H](C)/C(=N\OCOCCOC)[C@H](C)[C@@H](O)[C@]1(C)O [Roxithromycin] 0.0396

---

- Tested on: A431
- PROCEDURE_TEXT: LBPA endosome anti-LBPA integrated intensity (sum per cell), Z-score; higher = more LBPA staining
- APPLIED_CONDITIONS: compound concentration in added solution (µM; 5 µl added to 20 µl cells): 10; 18 h
Counter-ions that a name gives are not always drawn.
MEASURE: LBPA endosome anti-LBPA integrated intensity (z-score)
Respond using a number only.

                                   compound  test_system  numeric_readout
0  O=C(O)CCNC(=O)c1ccc(/N=N/c2ccc(O)c(C(=O)O)c2)cc1 [Balsalazide Sodium]         A431           -0.394

Using the record for CC(C)(C)NC[C@H](O)COc1nsnc1N1CCOCC1 [Timolol maleate salt] , report its LBPA endosome anti-LBPA integrated intensity (z-score). -0.399

Using the record for NC(=O)c1ncn([C@@H]2O[C@H](CO)[C@@H](O)[C@H]2O)n1 , report its LBPA endosome anti-LBPA integrated intensity (z-score). -0.391

Using the record for CNS(=O)(=O)Cc1ccc2[nH]cc(CCN(C)C)c2c1 [Sumatriptan succinate] , report its LBPA endosome anti-LBPA integrated intensity (z-score). -0.406
